Values compiled from paper PMC3038857.

I'd be grateful if you could share measured NVS_NR_hPXR for these entries.
assayed system: PXR (NR1I2) (Homo sapiens, UniProt O75469)
assay notes: NVS_NR_hPXR: Human PXR Fluormone PXR (SXR) green (cell-free HTS)
Format: binding

Form field: reported NVS_NR_hPXR of CC1(C)C(C=C(Cl)Cl)C1C(=O)OCc1cccc(Oc2ccccc2)c1 (stereo not shown)
4.444

Likewise for `CCCN(CCOc1c(Cl)cc(Cl)cc1Cl)C(=O)n1ccnc1` ?
5.274

Likewise for `N#CSCSC#N` ?
5.324

Likewise for COc1nc(C)nc(NC(=O)NS(=O)(=O)c2ccccc2CCC(F)(F)F)n1 [r267] ?
4.423

Likewise for `COC(=O)N(OC)c1ccccc1COc1ccn(-c2ccc(Cl)cc2)n1` ?
5.183

Likewise for `O=[N+]([O-])c1c(Cl)c(Cl)c(Cl)c(Cl)c1Cl` ?
4.314

Likewise for `CSc1nc(NC(C)C)nc(NC(C)C)n1` ?
4.472

Likewise for CC(C)=CC1C(C(=O)OCc2coc(Cc3ccccc3)c2)C1(C)C (stereo not shown) ?
5.1

Likewise for `CCCN(CCC)c1c([N+](=O)[O-])cc(S(N)(=O)=O)cc1[N+](=O)[O-]` ?
5.395

Likewise for `C#CC(C)(C)NC(=O)c1cc(Cl)cc(Cl)c1` ?
4.411

---

assayed system: PXR Human (NR1I2) (Homo sapiens, UniProt O75469)
assay notes: NCGC_PXR_Agonist_human: GAL4 BLAM Reporter gene assay: PXR Human
Format: cell-based
experimental parameters: agonist mode; scale not given, looks like -log10 of molar active concentration; 0 = no activity
value kind: NCGC_PXR_Agonist_human

Form field: reported NCGC_PXR_Agonist_human of `COc1ccc(-c2ccccc2)cc1NNC(=O)OC(C)C`
0

Likewise for COc1nc(C)nc(NC(=O)NS(=O)(=O)c2ccccc2Cl)n1 [r62] ?
0

Likewise for `N#Cc1c(Cl)c(Cl)c(Cl)c(C#N)c1Cl` ?
4.753

Likewise for `O=C(Nc1ccccc1-c1ccc(Cl)cc1)c1cccnc1Cl` ?
0

Likewise for CCC(C)Nc1c([N+](=O)[O-])cc(C(C)(C)C)cc1[N+](=O)[O-] (stereo not drawn) ?
4.442

Likewise for COc1nc(C)nc(NC(=O)NS(=O)(=O)c2ccccc2Cl)n1 [r63] ?
0

---

assayed system: PXR (NR1I2) (Homo sapiens)
Sequence (O75469 1-434): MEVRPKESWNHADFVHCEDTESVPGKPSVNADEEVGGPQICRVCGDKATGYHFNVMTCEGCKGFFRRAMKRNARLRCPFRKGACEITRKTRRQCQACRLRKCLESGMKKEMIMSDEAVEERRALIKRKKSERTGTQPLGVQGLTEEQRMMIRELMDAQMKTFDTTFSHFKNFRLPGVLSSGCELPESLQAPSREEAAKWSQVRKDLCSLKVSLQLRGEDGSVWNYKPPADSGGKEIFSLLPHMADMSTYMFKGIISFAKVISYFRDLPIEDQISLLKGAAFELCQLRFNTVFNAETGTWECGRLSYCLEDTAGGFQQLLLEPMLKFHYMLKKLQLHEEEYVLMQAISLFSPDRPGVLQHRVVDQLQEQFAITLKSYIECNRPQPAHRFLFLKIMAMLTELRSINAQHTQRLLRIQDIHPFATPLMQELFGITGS
assay notes: ATG_PXRE_CIS: Factorial reporter gene assay (HepG2)
Type: cell-based
Parameters: endogenous in cells; host or cells: HepG2
experimental parameters: HepG2 reporter
value kind: ATG_PXRE_CIS
# respond with the number and nothing more

Form field: reported ATG_PXRE_CIS of COc1nc(C)nc(NC(=O)NS(=O)(=O)c2ccccc2CCC(F)(F)F)n1 [r268]
4.509

Likewise for `COC(=O)N(OC)c1ccccc1COc1ccn(-c2ccc(Cl)cc2)n1` ?
5.62

Likewise for `CCc1nn(C)c(C(=O)NCc2ccc(C(C)(C)C)cc2)c1Cl` ?
5.387

Likewise for `CCNc1nc(Cl)nc(NCC)n1` ?
4.456

Likewise for `O=[N+]([O-])c1c(Cl)c(Cl)c(Cl)c(Cl)c1Cl` ?
4.959

Likewise for `O=c1n(Cl)c(=O)n(Cl)c(=O)n1Cl` ?
4.337

Likewise for `CCCOc1nn(C(=O)[N-]S(=O)(=O)c2ccccc2C(=O)OC)c(=O)n1C.[Na+]` ?
4.252

Likewise for CCCN(CC)CC1COC2(CCC(C(C)(C)C)CC2)O1 (stereo not drawn) ?
4.886

Likewise for COc1nc(C)nc(NC(=O)NS(=O)(=O)c2ccccc2CCC(F)(F)F)n1 [r267] ?
4.328

Likewise for `CCc1ccc(C(=O)NN(C(=O)c2cc(C)cc(C)c2)C(C)(C)C)cc1` ?
5.469

Likewise for `CC(C)(C)c1ccc(CSc2cnn(C(C)(C)C)c(=O)c2Cl)cc1` ?
5.444

Likewise for CCOC(=O)C(C)Oc1ccc(Oc2cnc3cc(Cl)ccc3n2)cc1 (stereo not drawn) ?
4.523

Likewise for COc1nc(C)nc(NC(=O)NS(=O)(=O)c2ccccc2CCC(F)(F)F)n1 [r266] ?
4.377

Likewise for `Cc1nn(-c2cc(NS(C)(=O)=O)c(Cl)cc2Cl)c(=O)n1C(F)F` ?
4.409

Likewise for `C#CC(C)(C)NC(=O)c1cc(Cl)cc(Cl)c1` ?
4.824

Likewise for `CCOC(=O)COc1cc(-c2nn(C)c(OC(F)F)c2Cl)c(F)cc1Cl` ?
4.26

Likewise for CC(C)=CC1C(C(=O)OCc2coc(Cc3ccccc3)c2)C1(C)C (stereo not drawn) ?
4.886

Likewise for CCC/C(=N\OCC)C1=C(O)CC(CC(C)SCC)CC1=O (stereo not drawn) ?
4.62

Likewise for Cc1c(F)c(F)c(COC(=O)C2C(/C=C(\Cl)C(F)(F)F)C2(C)C)c(F)c1F (stereo not drawn) ?
4.886

Likewise for CC(COc1ccc(Oc2ccccc2)cc1)Oc1ccccn1 (stereo not drawn) ?
4.886

Likewise for `CNC(=O)N(C)c1nnc(C(C)(C)C)s1` ?
4.357
